Every entry's value here was drawn from ChEMBL document CHEMBL2396633.

# Activity values compiled below
ASSAY_NOTES: Effect on total ATP level in CoQ10-deficient human GM17932 cells at 10 uM after 48 hrs by bioluminescence assay relative to control
Type: functional

Previously resolved entries follow.
COC1=C(OC)C(=O)C(CCCCCCCCCCO)=C(C)C1=O : 45.7%
CCCCCCCCCCCCCCCCc1nc(N(C)C)nc(C)c1O : 103%
Cc1nc(N(C)C)nc(CCCCCCCCCCO)c1O : 86.1%

Given the entry `CCCCCCCCCCc1nc(N(C)C)nc(C)c1O` , report its measured Activity.
97.1%

Given the entry `CCCCCCCCCCC1=C(C)C(=O)C(OC)=C(OC)C1=O` , report its measured Activity.
86.2%
